Would you kindly list inhibition for each of these molecules?
target: UniProt Q9JKC1; assay: Inhibition of Rat BuChE at 10 uM by Ellman's method
Sequence (Q9JKC1 as listed by the source): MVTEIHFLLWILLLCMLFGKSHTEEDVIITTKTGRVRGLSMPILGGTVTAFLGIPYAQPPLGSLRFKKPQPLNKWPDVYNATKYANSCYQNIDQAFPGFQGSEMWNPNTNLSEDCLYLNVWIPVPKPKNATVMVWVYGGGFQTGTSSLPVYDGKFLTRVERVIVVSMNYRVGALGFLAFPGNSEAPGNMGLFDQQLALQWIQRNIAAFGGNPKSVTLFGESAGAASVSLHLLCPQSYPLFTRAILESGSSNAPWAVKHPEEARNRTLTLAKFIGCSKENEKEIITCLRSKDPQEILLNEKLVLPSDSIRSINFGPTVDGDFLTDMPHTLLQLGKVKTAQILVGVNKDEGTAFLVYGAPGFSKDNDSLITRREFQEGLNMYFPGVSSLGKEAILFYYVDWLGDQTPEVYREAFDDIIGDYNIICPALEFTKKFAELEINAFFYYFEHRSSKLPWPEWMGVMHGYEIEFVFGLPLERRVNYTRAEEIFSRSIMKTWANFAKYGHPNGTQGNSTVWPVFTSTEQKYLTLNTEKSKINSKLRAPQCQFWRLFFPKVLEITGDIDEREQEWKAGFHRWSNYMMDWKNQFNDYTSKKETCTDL

Challenge: # input molecule: CCCCC1OC(=O)c2cc(OCc3ccc(CN4CCN(CC)CC4)c(O)c3)ccc21 (stereo unspecified) ; wanted: its inhibition
Response given: 6.5%

Challenge: Please do the same for CCCCC1OC(=O)c2cc(OCc3cccc(CN(CC)CC)c3O)ccc21 (stereo unspecified) as well.
Response given: < 5%

Challenge: // repeat for CCCCC1OC(=O)c2cc(OCc3ccc(CN(CC)CC)c(O)c3)ccc21 (stereo unspecified) and report
Response given: 8.1%

Challenge: How about CCCCC1OC(=O)c2cc(OCc3cccc(CN4CCN(CC)CC4)c3O)ccc21 (stereo unspecified) ?
Response given: < 5%

Challenge: Lookup CCCCC1OC(=O)c2cc(OCc3ccc(CN4CCCCC4)c(O)c3)ccc21 (stereo unspecified)
Response given: < 5%

Challenge: One more molecule: CCCCC1OC(=O)c2cc(OCc3ccc(CN4CCN(C)CC4)c(O)c3)ccc21 (stereo unspecified)
Response given: < 5%

Reference for the values: ChEMBL document CHEMBL5154748
